assay: NCI Yeast Anticancer Drug Screen. Data for the mec2-1 strain (AID 157); settings: S. cerevisiae mec2-1 strain, at 50.0 µM, hits give high values
This is part of a sample that, as a whole, favours compounds with a hit. Of some 79,000 tested, about 15% had one in any assay.
metric: growth inhibition (%)
Numeric answer only, unit % assumed.

Solved entries (count: 5):
compound=Nc1nc(N)c(-c2ccc(Cl)cc2)c(CCC(=O)Nc2cccc(C(F)(F)F)c2)n1 measured=-3.55
compound=O=[N+]([O-])C(CO)(CO)c1ccccc1 measured=2.4
compound="Cc1[nH]c(=O)[nH]c(=O)c1/C=C/C(=O)NC(CO)CSC(C)C (stereo unspecified)" measured=27.1
compound=Cc1c(-c2coc(-c3ccc(Cl)cc3)n2)c(=O)n(-c2ccccc2)n1C measured=-43.2
compound=COc1ccc(C=Nc2ccc([N+](=O)[O-])cc2O)cc1 measured=2.7

Q. Supply recorded growth inhibition for `CCOC(=O)CSc1[nH]c(NC(=S)Nc2ccccc2)c(C(N)=O)c1C(N)=O` here.
A. -8.2

Q. Supply recorded growth inhibition for `O=C1c2c(ccc3c2CCC3)CC12Cc1cc3c(cc1C2)CCC3` here.
A. -32.5

Q. Supply recorded growth inhibition for `O=S(=O)(NO)c1ccc(Cl)cc1` here.
A. 7.8

Q. Supply recorded growth inhibition for O=C(O)CC1SC2(C(=O)N(Cc3ccccc3)c3ccccc32)N(c2ccccc2)C1=O (stereo unspecified) here.
A. 29.8

Q. Supply recorded growth inhibition for O=C(OCC1OC(c2ccccc2)OC2C(COC(=O)c3ccccc3)OC(c3ccccc3)OC12)c1ccccc1 (stereo unspecified) here.
A. 6.1

Q. Supply recorded growth inhibition for COc1ccc(C(Cc2ccccc2)Nc2ccccc2)cc1 (stereo unspecified) here.
A. -6.7
